- target_under_test: F protein of RSV A-2 (human respiratory syncytial virus, …, UniProt P03420 26-574)
- protocol_description: cell-based or functional assay
Label rule, in plain words: RSV neutralization IC50 (nM) (n = 2), A-2 of 200 nM and up is criterion met, under 200 nM is criterion not met.

Has 1E4 (VHH) VHH: EVQLVESGGGLVQAGGSLRLSCEASGRTFSSYGMGWFRQAPGKEREFVAAVSRLSGPRTVYADSVKGRFTISRDNAENTVYLQMNSLKPEDTAVYTCAAELTNRNPGAYYYTWAYDYWGQGTQVTVSS a recorded RSV neutralization IC50 (nM) (n = 2), A-2 greater than or equal to 200 nM?
criterion met

Dear colleague, could you confirm whether RSVPMP15H8 (VHH) VHH: EVQLVESGGGLVQAGGSLRLSCAASGRSFSNYVLGWFRQAPGKEREFVAAISFRGDSAIGAPSVEGRFTISRDNAKNTGYLQMNSLVPDDTAVYYCGAGTPLNPGAYIYDWSYDYWGRGTQVTVSS has RSV neutralization IC50 (nM) (n = 2), A-2 at or above 200 nM?
criterion met

Textbook exercise: given the entry LG191D3 (VHH) VHH: EVQLVESGGGLVQAGGSLRLSCEASGRTYSRYGMGWFRQAPGKEREFVAAVSRLSGPRTVYADSVKGRFTISRDNAENTVYLQMNSLKPEDTAVYTCAAELTNRNSGAYYYAWAYDYWGQGTQVTVSS , state whether its RSV neutralization IC50 (nM) (n = 2), A-2 is greater than or equal to 200 nM.
criterion met

Does RSV neutralization IC50 (nM) (n = 2), A-2 meet or surpass 200 nM for RSVPMP7B2 (VHH) VHH: EVQLVESGGGLVQAGDSLRLSCAASGRTFSSYAMGWFRQAPGKEREFVAAISWSDGSTYYADSVKGRFTISRDNAKNTVYLQMNSLKPEDTAVYYCAADLTSTNPGSYIYIWAYDYWGQGTQVTVSS ?
criterion not met

Entry RSVNC23 (VHH) VHH: EVQLVESGGGLVQPGGSLRLSCAASGRTFSSIAMGWFRQAPGKEREFVAAISWSRGRTFYADSVKGRFIISRDDAANTAYLQMNSLKPEDTAVYYCAVDTASWNSGSFIYDWAYDHWGQGTQVTVSS : is its RSV neutralization IC50 (nM) (n = 2), A-2 no less than 200 nM?
criterion not met
